Item-by-item account of solubility kinetic
- Cond: buffer; pH 7.4; 200.0 µM
Measured parameter: solubility kinetic (µg/mL)

compound="CCOC1OC(=O)C(Cl)=C1Nc1ccc(C)cc1 (stereo unspecified)" measured_parameter="solubility kinetic" inequality_operator=> measurement=40.2
compound=COC(=O)Cn1c2ccc(Cl)cc2c2nc(C)sc21 measured_parameter="solubility kinetic" inequality_operator== measurement=35.3
compound=CNC(=O)N1c2ccccc2C=Cc2ccccc21 measured_parameter="solubility kinetic" inequality_operator=> measurement=37.5
compound=Cc1ccc2c(c1)c(C1=c3ccccc3=NC1=O)c(O)n2C measured_parameter="solubility kinetic" inequality_operator== measurement=1.1
compound=O=C(CN1CCC(NC(=O)C2CCCCC2)CC1)Nc1cccc(F)c1 measured_parameter="solubility kinetic" inequality_operator== measurement=18.4
compound="Nc1cccc(Oc2ccc3c(c2)C(=O)N(CC2CCCO2)C3=O)c1 (stereo unspecified)" measured_parameter="solubility kinetic" inequality_operator== measurement=41.4
compound=NC(=S)Cc1ccc(Cl)cc1Cl measured_parameter="solubility kinetic" inequality_operator== measurement=30.9
compound="O=C(NCC1CCCO1)c1ccc(COc2ccccc2)cc1 (stereo unspecified)" measured_parameter="solubility kinetic" inequality_operator=> measurement=46.7
compound=Cc1cccc(NC(=O)Cc2ccc(Br)cc2)n1 measured_parameter="solubility kinetic" inequality_operator== measurement=38.6
compound=CCC(=O)N(C(=O)CC)N1CCN(c2ccncc2S(=O)(=O)N2CCCCC2)CC1 measured_parameter="solubility kinetic" inequality_operator=> measurement=65.6
compound=O=C(c1cc(-c2ccccc2)on1)N1CCC2(CC1)OCCO2 measured_parameter="solubility kinetic" inequality_operator=> measurement=47.2
compound=O=C(COc1ccccc1Cl)NCc1ccccc1 measured_parameter="solubility kinetic" inequality_operator== measurement=20.6
compound=COc1ccc(C(=O)NCCCCc2ccccc2)cc1 measured_parameter="solubility kinetic" inequality_operator== measurement=2.9
compound="O=C1Nc2ccc([N+](=O)[O-])cc2OC1CCN1CCCC1 (stereo unspecified)" measured_parameter="solubility kinetic" inequality_operator=> measurement=43.7
compound=NS(=O)(=O)c1cccc(NC(=O)Nc2ccccc2)c1 measured_parameter="solubility kinetic" inequality_operator=> measurement=43.7
compound=O=C(Cc1ccc(Cl)cc1)Nc1ccc2oc(=O)ccc2c1 measured_parameter="solubility kinetic" inequality_operator== measurement=2.9
compound=Cc1cccc(N2C(=O)c3ccccc3C2=O)n1 measured_parameter="solubility kinetic" inequality_operator=> measurement=35.7
compound=Cn1ccnc1C(=O)c1cccc(Br)c1 measured_parameter="solubility kinetic" inequality_operator=> measurement=39.8
compound=Cn1cc(C=C2C(=O)OC3(CCCCC3)OC2=O)c2ccccc21 measured_parameter="solubility kinetic" inequality_operator=< measurement=0.7
compound=COc1ccc(CCNC(=O)COC(=O)c2cncc(Br)c2)cc1OC measured_parameter="solubility kinetic" inequality_operator=> measurement=63.5
compound=O=C(CSc1ccc(Br)cc1)NC1CCCCCC1 measured_parameter="solubility kinetic" inequality_operator== measurement=3.4
compound=COc1ccc(N2CCN(CC(=O)Nc3ccc(C)cc3)CC2)cc1 measured_parameter="solubility kinetic" inequality_operator== measurement=46.8
compound=O=C1CCN(C(=S)NCCc2ccccc2)CC1 measured_parameter="solubility kinetic" inequality_operator=> measurement=39.4
compound=O=C(Nc1nc(-c2ccccc2)cs1)c1ccccc1F measured_parameter="solubility kinetic" inequality_operator== measurement=0.4
compound=Cc1ccccc1-c1nc2cc(NC(=O)C3CC3)ccc2o1 measured_parameter="solubility kinetic" inequality_operator== measurement=0.8
compound="Cc1ccc(C)c(NC(=O)C2COc3ccccc3O2)c1 (stereo unspecified)" measured_parameter="solubility kinetic" inequality_operator== measurement=3.5
